System: LXF-289
Test: relative viability (nuclei count vs DMSO), 5 days (fraction); higher = more cells survive
Conditions: first compound 0.1265 µM
measurement-type: relative viability
Please respond with just the number, no unit label.

| compound | relative viability |
| --- | --- |
| COc1cc(N2CCC(C(N)=O)CC2)ccc1Nc1nc(N)c(Cl)c(Nc2ccccc2S(=O)(=O)C(C)C)n1 [HG-5-88-01] + C[C@]1(O)C[C@@H](c2nc(-c3ccc4ccc(-c5ccccc5)nc4c3)c3c(N)nccn32)C1 [Linsitinib] (partner 1 µM) | 1 |
| COc1cc(N2CCC(C(N)=O)CC2)ccc1Nc1nc(N)c(Cl)c(Nc2ccccc2S(=O)(=O)C(C)C)n1 [HG-5-88-01] + CCNC(=O)c1noc(-c2cc(C(C)C)c(O)cc2O)c1-c1ccc(CN2CCOCC2)cc1 [Luminespib] (partner 0.01 µM) | 0.733 |
| COc1cc(N2CCC(C(N)=O)CC2)ccc1Nc1nc(N)c(Cl)c(Nc2ccccc2S(=O)(=O)C(C)C)n1 [HG-5-88-01] + CC(=O)Nc1cccc(-n2c(=O)n(C3CC3)c(=O)c3c(Nc4ccc(I)cc4F)n(C)c(=O)c(C)c32)c1 [Trametinib] (partner 0.02 µM) | 0.692 |
| Clc1ccc(Nc2nnc(Cc3ccncc3)c3ccccc23)cc1 [Vatalanib] + CS(=O)(=O)N1CCN(Cc2cc3nc(-c4cccc5[nH]ncc45)nc(N4CCOCC4)c3s2)CC1 [Pictilisib] (partner 1 µM) | 0.737 |

Report relative viability for Clc1ccc(Nc2nnc(Cc3ccncc3)c3ccccc23)cc1 [Vatalanib] + NC(=O)Nc1cc(-c2cccc(F)c2)sc1C(=O)N[C@H]1CCCNC1 [AZD7762] (partner 0.2 µM) please. 0.97

What about this compound? C[C@@H]1CN(CC(=O)Nc2ccc3c(c2)Cc2cccc(-c4cc(=O)cc(N5CCOCC5)o4)c2S3)C[C@H](C)O1 + CS(=O)(=O)CCNCc1ccc(-c2ccc3ncnc(Nc4ccc(OCc5cccc(F)c5)c(Cl)c4)c3c2)o1 [Lapatinib] (partner 2 µM) 0.962

====

Known relative viability of a selection of molecules
Tested on: LU99A
Test: relative viability (nuclei count vs DMSO), 5 days (fraction); higher = more cells survive
Settings: first compound 0.04 µM
Please respond with just the number, no unit label.

Known results for molecules:
| molecule | relative viability |
| --- | --- |
| C[C@@H]1CN(CC(=O)Nc2ccc3c(c2)Cc2cccc(-c4cc(=O)cc(N5CCOCC5)o4)c2S3)C[C@H](C)O1 + Cc1cc(Nc2cc(N3CCN(C)CC3)nc(Sc3ccc(NC(=O)C4CC4)cc3)n2)n[nH]1 [Tozasertib] (partner 0.1 µM) | 0.243 |
| COc1cc(N2CCC(C(N)=O)CC2)ccc1Nc1nc(N)c(Cl)c(Nc2ccccc2S(=O)(=O)C(C)C)n1 [HG-5-88-01] + O=C(CCCCCCC(=O)Nc1ccccc1)NO [Vorinostat] (partner 1 µM) | 0.442 |
| C[C@@H]1CN(CC(=O)Nc2ccc3c(c2)Cc2cccc(-c4cc(=O)cc(N5CCOCC5)o4)c2S3)C[C@H](C)O1 + CS(=O)(=O)CCNCc1ccc(-c2ccc3ncnc(Nc4ccc(OCc5cccc(F)c5)c(Cl)c4)c3c2)o1 [Lapatinib] (partner 2 µM) | 0.783 |

Consider the additional molecule presented here.
Report relative viability for C[C@@H]1CN(CC(=O)Nc2ccc3c(c2)Cc2cccc(-c4cc(=O)cc(N5CCOCC5)o4)c2S3)C[C@H](C)O1 + O=C(CCCCCCC(=O)Nc1ccccc1)NO [Vorinostat] (partner 1 µM) please. 0.444

====

Tested on: NCI-H1975
Assay: relative viability (nuclei count vs DMSO), 5 days (fraction); higher = more cells survive
Details: first compound 0.01 µM
measurement-type: relative viability
Please respond with just the number, no unit label.

| compound | tested-target | relative viability |
| --- | --- | --- |
| CC(C)Oc1cc(Nc2nc(N[C@@H](C)c3ccc(F)cn3)ncc2Cl)n[nH]1 [AZ23] + Cc1nc(NC(=O)N2CCC[C@H]2C(N)=O)sc1-c1ccnc(C(C)(C)C(F)(F)F)c1 [Alpelisib] (partner 2 µM) | NCI-H1975 | 0.696 |
| CC(C)Oc1cc(Nc2nc(N[C@@H](C)c3ccc(F)cn3)ncc2Cl)n[nH]1 [AZ23] + CC(=O)c1c(C)c2cnc(Nc3ccc(N4CCNCC4)cn3)nc2n(C2CCCC2)c1=O [Palbociclib] (partner 0.5 µM) | NCI-H1975 | 0.534 |

Report relative viability for CC(C)Oc1cc(Nc2nc(N[C@@H](C)c3ccc(F)cn3)ncc2Cl)n[nH]1 [AZ23] + Cc1cc(Nc2cc(N3CCN(C)CC3)nc(Sc3ccc(NC(=O)C4CC4)cc3)n2)n[nH]1 [Tozasertib] (partner 0.1 µM) please. 0.836

====

Test system: NCI-H2009
Assay: relative viability (nuclei count vs DMSO), 5 days (fraction); higher = more cells survive
Details: first compound 0.4 µM
Exam item: assign criterion met to entries whose relative viability is below 0.7 and criterion not met to entries at or above 0.7. Note that a value of exactly 0.7 receives criterion not met.

As a guide, the following entries are already answered.
| molecule | group-label |
| --- | --- |
| COc1cc(N2CCC(C(N)=O)CC2)ccc1Nc1nc(N)c(Cl)c(Nc2ccccc2S(=O)(=O)C(C)C)n1 [HG-5-88-01] + Nc1nc2[nH]cc(CCc3ccc(C(=O)N[C@@H](CCC(=O)O)C(=O)O)cc3)c2c(=O)[nH]1 [Pemetrexed] (partner 0.2 µM) | criterion not met |
| C[C@@H]1CN(CC(=O)Nc2ccc3c(c2)Cc2cccc(-c4cc(=O)cc(N5CCOCC5)o4)c2S3)C[C@H](C)O1 + CS(=O)(=O)CCNCc1ccc(-c2ccc3ncnc(Nc4ccc(OCc5cccc(F)c5)c(Cl)c4)c3c2)o1 [Lapatinib] (partner 2 µM) | criterion not met |
| COc1cc(N2CCC(C(N)=O)CC2)ccc1Nc1nc(N)c(Cl)c(Nc2ccccc2S(=O)(=O)C(C)C)n1 [HG-5-88-01] + CC(=O)c1c(C)c2cnc(Nc3ccc(N4CCNCC4)cn3)nc2n(C2CCCC2)c1=O [Palbociclib] (partner 0.5 µM) | criterion met |
| C[C@@H]1CN(CC(=O)Nc2ccc3c(c2)Cc2cccc(-c4cc(=O)cc(N5CCOCC5)o4)c2S3)C[C@H](C)O1 + C[C@@H](Oc1cc(-c2cnn(C3CCNCC3)c2)cnc1N)c1c(Cl)ccc(F)c1Cl [Crizotinib] (partner 1 µM) | criterion not met |

Next item in the queue.
I wonder whether C[C@@H]1CN(CC(=O)Nc2ccc3c(c2)Cc2cccc(-c4cc(=O)cc(N5CCOCC5)o4)c2S3)C[C@H](C)O1 + O=C(CCCCCCC(=O)Nc1ccccc1)NO [Vorinostat] (partner 1 µM) has relative viability below 0.7. Can you tell? criterion met

====

Test system: NCI-H1650
Assay: relative viability (nuclei count vs DMSO), 5 days (fraction); higher = more cells survive
Settings: first compound 0.4 µM
measurement-type: relative viability
Please respond with just the number, no unit label.

Known results for molecules:
| molecule | measurement-type | measured |
| --- | --- | --- |
| C[C@@H]1CN(CC(=O)Nc2ccc3c(c2)Cc2cccc(-c4cc(=O)cc(N5CCOCC5)o4)c2S3)C[C@H](C)O1 + COc1cc2c(Oc3ccc(NC(=O)C4(C(=O)Nc5ccc(F)cc5)CC4)cc3F)ccnc2cc1OCCCN1CCOCC1 [Foretinib] (partner 0.25 µM) | relative viability | 1.04 |
| COc1cc(N2CCC(C(N)=O)CC2)ccc1Nc1nc(N)c(Cl)c(Nc2ccccc2S(=O)(=O)C(C)C)n1 [HG-5-88-01] + CC(=O)c1c(C)c2cnc(Nc3ccc(N4CCNCC4)cn3)nc2n(C2CCCC2)c1=O [Palbociclib] (partner 0.5 µM) | relative viability | 0.327 |
| Clc1ccc(Nc2nnc(Cc3ccncc3)c3ccccc23)cc1 [Vatalanib] + N=C(N)NC(=N)NCCc1ccccc1 [Phenformin] (partner 250 µM) | relative viability | 0.36 |

Report relative viability for C[C@@H]1CN(CC(=O)Nc2ccc3c(c2)Cc2cccc(-c4cc(=O)cc(N5CCOCC5)o4)c2S3)C[C@H](C)O1 + Cc1nc(Nc2ncc(C(=O)Nc3c(C)cccc3Cl)s2)cc(N2CCN(CCO)CC2)n1 [Dasatinib] (partner 0.075 µM) please. 0.301

====

System: CAL-12T
Assay: relative viability (nuclei count vs DMSO), 5 days (fraction); higher = more cells survive
Conditions: first compound 8 µM
Exam item: assign Criterion met to entries whose relative viability is below 0.7 and Criterion not met to entries at or above 0.7. Note that a value of exactly 0.7 receives Criterion not met.

| molecule | group-label |
| --- | --- |
| CCCCCCCCCCCC1=C(O)C(=O)C=C(O)C1=O [Embelin] + NC(=O)Nc1cc(-c2cccc(F)c2)sc1C(=O)N[C@H]1CCCNC1 [AZD7762] (partner 0.2 µM) | Criterion met |
| CCCCCCCCCCCC1=C(O)C(=O)C=C(O)C1=O [Embelin] + Cc1nc(NC(=O)N2CCC[C@H]2C(N)=O)sc1-c1ccnc(C(C)(C)C(F)(F)F)c1 [Alpelisib] (partner 2 µM) | Criterion not met |
| CCCCCCCCCCCC1=C(O)C(=O)C=C(O)C1=O [Embelin] + CCNC(=O)c1noc(-c2cc(C(C)C)c(O)cc2O)c1-c1ccc(CN2CCOCC2)cc1 [Luminespib] (partner 0.01 µM) | Criterion met |

I wonder whether CCCCCCCCCCCC1=C(O)C(=O)C=C(O)C1=O [Embelin] + COc1cccc2cc(-c3nc([C@H]4CC[C@H](C(=O)O)CC4)n4ncnc(N)c34)[nH]c12 [OSI-027] (partner 0.5 µM) has relative viability below 0.7. Can you tell? Criterion met

What about this molecule? CCCCCCCCCCCC1=C(O)C(=O)C=C(O)C1=O [Embelin] + CC1(C)CCC(c2ccc(Cl)cc2)=C(CN2CCN(c3ccc(C(=O)NS(=O)(=O)c4ccc(N[C@H](CCN5CCOCC5)CSc5ccccc5)c(S(=O)(=O)C(F)(F)F)c4)cc3)CC2)C1 [Navitoclax] (partner 0.5 µM) Criterion not met

What about this molecule? CCCCCCCCCCCC1=C(O)C(=O)C=C(O)C1=O [Embelin] + C[C@@H](Oc1cc(-c2cnn(C3CCNCC3)c2)cnc1N)c1c(Cl)ccc(F)c1Cl [Crizotinib] (partner 1 µM) Criterion not met
